Attribute: TGI
System: UO-31 renal
Test: NCI tumour cell line growth inhibition, 48 h
# value in µM; strip the unit string

- chemSmiles: "CC(=O)Nc1cc2c3c(cccc3c1)-c1ccccc1-2"
  unitAbbrev: "µM"
  result: 15.3

Lookup: Need TGI, item COc1cc2c(cc1[N+](=O)[O-])C(=O)C(Br)(Br)CCC2
Found: 3.23

====

System: TK-10 renal
Assay: NCI tumour cell line growth inhibition, 48 h; in the data active = GI50 below about 0.43 µM; inactive = the rest
Classes to choose from: True for active, False for inactive

Observe how each entry below is paired with its result.
- compound: "Cc1cc(C)c2c(c1)N(C)c1ncnc(-n3cnc4cc(C)ccc43)c1CC2C (centres undefined)"
  targetOfAssay: "TK-10 renal"
  discreteLabel: "False"
- compound: "COC(=O)Nc1nc2ccc(C(=O)c3ccc(F)cc3)cc2[nH]1"
  targetOfAssay: "TK-10 renal"
  discreteLabel: "False"
- compound: "CC(=O)ON=C1C=CC(=C(C#N)c2ccccc2)C=C1"
  targetOfAssay: "TK-10 renal"
  discreteLabel: "False"
- compound: "Cn1c(=O)c(Oc2ccc(F)cc2F)cc2cnc(NCC(C)(C)O)nc21"
  targetOfAssay: "TK-10 renal"
  discreteLabel: "False"
- compound: "O=C1OCC2=C1C(c1cccc(Cl)c1)c1cc3c(cc1N2CCO)CCC3 (centres undefined)"
  targetOfAssay: "TK-10 renal"
  discreteLabel: "True"
- compound: "Cc1cc(-c2cc(OC(=O)c3ccccc3)ccc2Cl)cc2nnc(Nc3ccc(OCCN4CCCC4)cc3)nc12"
  targetOfAssay: "TK-10 renal"
  discreteLabel: "False"

Lookup: Per the records of this test, what outcome belongs to CCCCCCCCCC[C@H](O)[C@H]1CC[C@@H]([C@@H](O)CC[C@H](O)[C@@H]2CCC(CCCCCCC[C@@H](O)CC3=C[C@H](C)OC3=O)O2)O1 (some centres undefined) ?
Found: False

Lookup: Now try CN(C)c1ccc(/C=c2/c3cc(O)ccc3n3c2cc(-c2ccccc2)[n+]3C)cc1 .
Found: False

Lookup: Now try O=C(NN1C(=O)CSC1c1c(Cl)cccc1Cl)C(O)c1ccccc1 (centres undefined) .
Found: False

====

Tested on: HCC-2998 colon
Assay: NCI tumour cell line growth inhibition, 48 h
testReadout: TGI (µM)
# value in µM; strip the unit string

Below are worked cases with known answers.
- compound: "C#CCNC(=O)CC[C@@H](C)[C@H]1CC[C@H]2[C@@H]3CC[C@@H]4CC(=O)CC[C@]4(C)[C@H]3CC[C@]12C"
  TGI, µM: 54.1
- compound: "CCCCCCCCCCCCCCCCCC[S+](C)CC (stereo not drawn)"
  TGI, µM: 2.68
- compound: "O=C(/C=C/C=C/c1ccc2c(c1)OCO2)N/N=C\\c1ccc(O)cc1O"
  TGI, µM: 18.3
- compound: "COc1ccc(CNc2nc3cc(C(F)(F)F)ccc3nc2C(=O)O)cc1"
  TGI, µM: 71.3
- compound: "CC[As](CC)SCC1OC(OC(C)=O)C(OC(C)=O)C(OC(C)=O)C1OC(C)=O (stereo not drawn)"
  TGI, µM: 31.7

Lookup: # query: TGI | item CCCCCCCCCCCCCCCCCCOc1ccccc1COP(=O)(O)OOCC[N+](C)(C)C | system: HCC-2998 colon
Found: 1.6

Lookup: Now try O=C(CCN1CCCN(c2cnc3ccccc3n2)CC1)c1csc2ccccc12 .
Found: 33.2

Lookup: Now try CO/C(=C1/NC(=O)C(Cc2ccc(O)c(Br)c2)N(C)C(=O)C(C)NC(=O)CCC/C=C(\C)CCC(C)OC1=O)c1ccccc1 (stereo not drawn) .
Found: 0.311

Lookup: Now try CC[C@@H](C)/C=C(C)/C=C/C(=O)c1c(O)c(-c2ccc(O)cc2)cn(OC2CC(=O)CCC(C)OC(=O)CC2O)c1=O (stereo partly drawn) .
Found: 13.6

Lookup: Now try CCCCOC(=O)c1c(C)[nH]c(/C=C2\N=C(c3ccc[nH]3)C=C2OC)c1C .
Found: 2.06

Lookup: Now try O[C@@]12Cc3c([nH]c4ccccc34)[C@@H]3Oc4c(-c5ccccc5)ccc5c4[C@@]31CCN(CC1CC1)[C@@H]2C5 .
Found: 2.92

Lookup: Now try CCOC(=O)c1cc([N+](=O)[O-])c(Sc2ncnc3nc[nH]c23)c([N+](=O)[O-])c1 .
Found: 36.7

Lookup: Now try O=C1c2ccc3c4c(ccc(c24)C(=O)N1CCNCc1ccccc1)C(=O)N(CCNCc1ccccc1)C3=O .
Found: 3.15

Lookup: Now try Cc1cc(C)nc(NS(=O)(=O)c2ccc(NC(=O)COC(=O)c3cccc4c(=O)c5ccccc5[nH]c34)cc2)n1 .
Found: 37.9

Lookup: Now try C[C@@H](c1ccccc1)N1CO[C@@]2(C#Cc3ccc4c(c3)OCO4)CCC[C@@H]12 .
Found: 34.7

Lookup: Now try CCN(CC)CCSc1c(C(C)=O)c(=O)n(-c2ccccc2)c(=S)n1-c1ccccc1 .
Found: 24.5

Lookup: Now try N=c1oc2cc(O)ccc2cc1C(=O)Nc1cccc2ccccc12 .
Found: 12.9

Lookup: Now try CC[C@@]1(O)C(=O)OCc2c1cc1n(c2=O)Cc2c-1nc1cc(F)c(C)c3c1c2[C@@H](NC(=O)CO)CC3 .
Found: 3.51

Lookup: Now try CCOc1cc2c(cc1O)C(=O)C[C@@H]1[C@@H]2CC[C@]2(C)[C@@H](O)CC[C@@H]12 .
Found: 4.56

====

Attribute: GI50
Tested on: SK-MEL-28 melanoma
Test: NCI tumour cell line growth inhibition, 48 h

- chemSmiles: "O=C(Nc1cccc(-n2cc(-c3ccncc3)c(-c3ccc(Cl)c(O)c3)n2)c1)Nc1ccc(Cl)c(Cl)c1"
  testReadout: "GI50"
  result: "1460 nM"
- chemSmiles: "Cc1cc(-c2cc(OC(=O)c3ccccc3)ccc2Cl)cc2nnc(Nc3ccc(OCCN4CCCC4)cc3)nc12"
  testReadout: "GI50"
  result: "1500 nM"
- chemSmiles: "CC/C(=C(/c1ccc(OCCN(C)C)cc1)c1ccc(OC(=O)CCCCCCCCC(=O)c2c(C)[nH]c(/C=C3\\N=C(c4ccc[nH]4)C=C3OC)c2C)cc1)c1ccccc1"
  testReadout: "GI50"
  result: "43900 nM"
- chemSmiles: "Nc1ncnc2c1ccn2-c1cccc(NC(=O)c2ccc(N3CCOCC3)c(C(F)(F)F)c2)c1"
  testReadout: "GI50"
  result: "4760 nM"
- chemSmiles: "CN(C)C1CN(C(=O)c2cc(-c3ccc4ncnc(N5CCc6cc(F)c(Cl)cc65)c4c3)cnc2N)C1"
  testReadout: "GI50"
  result: "869 nM"

Lookup: Need GI50, item COc1c(B(O)O)cccc1-c1nc2c(F)cc3n[nH]c(C)c3c2c2c1CCCC2
Found: 2100 nM

Lookup: Now try COC(=O)[C@]12CC[C@@H](C)[C@H](C)[C@@H]1C1=CC[C@@H]3[C@@](C)(CC#N)C4=C(C[C@@]3(C)[C@]1(C)CC2)OC[C@]4(C)C=O .
Found: 4110 nM

====

Attribute: TGI
Test system: A549 NSCLC
Test: NCI tumour cell line growth inhibition, 48 h

Below are worked cases with known answers.
- molecule: "O=C(OCC(OC(=O)c1ccccc1)C1CC(C2(O)CCCCC2)C(=O)O1)c1ccccc1 (stereo unspecified)"
  targetOfAssay: "A549 NSCLC"
  TGI: "> 25 µM"
- molecule: "CON[N+]([O-])=NC(C)C"
  targetOfAssay: "A549 NSCLC"
  TGI: "> 100 µM"
- molecule: "O=C(Nc1cccc(-n2cc(-c3ccncc3)c(-c3ccc(Cl)c(O)c3)n2)c1)Nc1ccc(Cl)c(Cl)c1"
  targetOfAssay: "A549 NSCLC"
  TGI: "> 32.5 µM"
- molecule: "C=CCOCn1cnc2c(=O)[nH]c(N)nc21"
  targetOfAssay: "A549 NSCLC"
  TGI: "> 100 µM"
- molecule: "c1ccc2c(c1)-c1ccccc1C2NC1=NCCO1"
  targetOfAssay: "A549 NSCLC"
  TGI: "> 100 µM"

Now consider the entry below.
Lookup: Need TGI, item COC(=O)C1Cc2cc3c(cc2C1)CCC3
Found: > 100 µM

====

Attribute: GI50
System: HOP-62 NSCLC
Test: NCI tumour cell line growth inhibition, 48 h

Below are worked cases with known answers.
- chemSmiles: "O=C(N/N=C/c1ccncc1)c1ccc(F)cc1"
  testReadout: "GI50"
  result: "> 40000 nM"
- chemSmiles: "COc1ccc(/C=C\\c2cc(OC)c(OC)c(OC)c2)c(NS(=O)(=O)c2ccc(F)cc2)c1O"
  testReadout: "GI50"
  result: "610 nM"
- chemSmiles: "C[C@]12CC[C@H]3[C@@H](CC[C@]4(O)C[C@@H](O[C@@H]5O[C@H](CO)[C@@H](O[C@@H]6OC[C@@H](O)[C@H](O)[C@H]6O)[C@H](O)[C@H]5O)CC[C@]34C=O)[C@@]1(O)CC[C@@H]2C1=CC(=O)OC1"
  testReadout: "GI50"
  result: "702 nM"

Now consider the entry below.
Lookup: Need GI50, item CN(C)C1CN(C(=O)c2cc(-c3ccc4ncnc(N5CCc6cc(F)c(Cl)cc65)c4c3)cnc2N)C1
Found: 586 nM

Source listed as PubChem BioAssay (NCI).
